tested on: Human papillomavirus type 1a E7 protein (residues 1-88); assay: HPV1a E7 small-molecule binders, primary screen, biochemical, small-molecule microarray, residues 1-88, 635 nm (AID 1129); conditions: small-molecule microarray binding, fluorescence 635 nm; higher = more signal
QUANTITY_NAME: composite z-score

COMPOUND	QUANTITY_NAME	READOUT_VALUE
CCCCC(=C=CC[C@@H](O)c1ccc(CO)o1)CCO	composite z-score	0.0355
COCCOC(=O)N1C(=O)[C@@]2(c3ccccc31)[C@H](c1ccc(OCCO)cc1)N1[C@H](c3ccccc3)[C@H](c3ccccc3)OC(=O)[C@H]1[C@@H]2C(=O)N1CCc2cc(OC)c(OC)cc2C1	composite z-score	1.2
CN1C(=O)C2C=CC(C(O)c3c(F)cccc3Cl)N(NC(=O)OC(C)(C)C)C2C1=O (stereo not drawn)	composite z-score	1.09
COc1ccc([Si](C)(C)[C@@H]2[C@@H](CCO)O[C@]3(C(=O)N(Cc4cccc(N5CCOC5=O)c4)c4ccccc43)[C@H]2C)cc1	composite z-score	0.981
O=C(CS)NCCCCCNC(=O)[C@H]1C[C@H]2C(=O)NCC(=O)N2[C@H]1c1ccc(O)cc1	composite z-score	-1.16
O=C(O)[C@H](Cc1ccccc1)n1cc(-c2ccccc2)nn1	composite z-score	0.6
NC(=O)NCC#Cc1ccc2c(c1)[C@]1(C(=O)N2)[C@H](C(=O)O)[C@H]2C(=O)O[C@H](c3ccccc3)[C@H](c3ccccc3)N2[C@@H]1c1ccc(O)cc1	composite z-score	0.0885
COCCOC(=O)N1C(=O)[C@@]2(c3ccccc31)[C@H](C(=O)N1CCCCCCC1)[C@H]1C(=O)O[C@H](c3ccccc3)[C@H](c3ccccc3)N1[C@@H]2c1ccc(OCCO)cc1	composite z-score	1.35
O=C(NC1CC1)[C@@H]1c2ccccc2C(=O)N(C2Cc3ccccc3C2)[C@H]1c1ccc(CO)cc1	composite z-score	1.18
COc1ccc([Si](C)(C)[C@H]2[C@H](CCO)O[C@@]3(C(=O)N(Cc4ccccc4)c4ccc(N5CCCCC5=O)cc43)[C@@H]2C)cc1	composite z-score	0.435
Cc1ccc(S[C@]2(C(=O)O)CC(=O)N(C(C)C)[C@@H]2c2ccc(CO)cc2)cc1	composite z-score	-0.386
C=CCNC(=O)[C@@H]1[C@H]2C(=O)O[C@H](c3ccccc3)[C@H](c3ccccc3)N2[C@H](c2ccc(OCCO)cc2)[C@@]12C(=O)N(C(=O)OCCOC)c1ccc(C#CCC(C(=O)OC)C(=O)OC)cc12	composite z-score	1.16
COC(=O)[C@@]1(Cc2ccc(OC)cc2)[C@H]2c3cc(C(=O)N4CCCC4)n(CCc4ccc(O)c(O)c4)c3C[C@H]2CN1C(=O)c1ccccc1	composite z-score	1.17
COCCOC(=O)N1C(=O)[C@@]2(c3cc(C#Cc4ccc(OC)cc4)ccc31)[C@H](c1ccc(O)cc1)N1[C@H](c3ccccc3)[C@H](c3ccccc3)OC(=O)[C@H]1[C@@H]2C(=O)Nc1nc2ccccc2s1	composite z-score	1.19
O=C1NC(=O)C2C1C=CC(C(O)c1ccc(I)cc1)N2Nc1ccc(Cl)cc1Cl (stereo not drawn)	composite z-score	1.03
CC(c1ccccc1)C(O)C1C=CC2C(=O)N(c3ccccc3)C(=O)C2N1Nc1ccccc1 (stereo not drawn)	composite z-score	1.28
COc1ccccc1CN1C(=O)c2ccccc2[C@@]2(Cc3ccccc3N(CCCN(C)C)C2=O)[C@@H]1c1ccc(CO)cc1	composite z-score	-0.984
N#Cc1ccc(C(O)C2C=CC3C(=O)N(c4ccccc4)C(=O)C3N2Nc2ccccc2F)cc1 (stereo not drawn)	composite z-score	1.05
C=CCC(OC(C)=O)[C@@H]1[C@@H](N(Cc2ccc(-c3ccccc3)cc2)C(=O)Cc2ccc(F)cc2)c2cc(OCCCO)ccc2N1C(=O)c1ccc2ccccc2c1 (stereo partly drawn)	composite z-score	-0.0066
O=C1OCCC=C[C@H]2OC34C=CCN(c5ccc(Cl)cc5)C(=O)[C@H]3N(CCCO)C(=O)[C@@H]4C12 (stereo partly drawn)	composite z-score	-1.88
C=CCNC(=O)[C@H]1[C@@H]2C(=O)O[C@@H](c3ccccc3)[C@@H](c3ccccc3)N2[C@@H](c2ccc(O)cc2)[C@]12C(=O)Nc1ccc(C#CCCO)cc12	composite z-score	-0.338
CCCCC(=C=CC[C@H](O)c1cccc(OCCO)c1)C[C@H](O)c1ccccn1	composite z-score	-0.0708
CCCCN1CC=CC23O[C@@H]4C=CCCOC(=O)C4[C@H]2C(=O)N(CCCCCO)[C@@H]3C1=O (stereo partly drawn)	composite z-score	-0.306
C[N+](C)(C)CCCC[C@@H]1NC(=O)[C@H]2C[C@@H](C(=O)NCCCCCCNC(=O)CS)[C@@H](c3ccc(O)cc3)N2C1=O	composite z-score	-0.0478
O=C1C[C@@](C(=O)NCc2ccccc2)(c2ccc([N+](=O)[O-])cc2)[C@@H](c2ccc(CO)cc2)N1CC12CC3CC(CC(C3)C1)C2	composite z-score	1.19
C#CCNCc1ccccc1	composite z-score	0.736
COc1ccc(C#Cc2ccc3c(c2)[C@]2(C(=O)N3)[C@H](c3ccc(O)cc3)N3[C@H](c4ccccc4)[C@H](c4ccccc4)OC(=O)[C@H]3[C@@H]2C(=O)N2CCc3cc(OC)c(OC)cc3C2)cc1	composite z-score	1.19
COCCOC(=O)N1C(=O)[C@@]2(c3cc(C#CC4(O)CCCCCC4)ccc31)[C@H](c1ccccc1OCCO)N1[C@H](c3ccccc3)[C@H](c3ccccc3)OC(=O)[C@H]1[C@@H]2C(=O)N1CCc2cc(OC)c(OC)cc2C1	composite z-score	1.23

* * *

test: probe aCHRDL2 binding to arrayed compounds – biochemical, biotinylated probe, 635/667 nm fluorescence, primary screen (AID 1100); conditions: small-molecule microarray, higher = more signal
QUANTITY_NAME: composite z-score

>>> print(df.to_string())
                                   molecule  readout_value
0  CC(C)NC(=O)[C@@H]1c2ccccc2C(=O)N(C(C)C)[C@H]1c1ccc(CO)cc1           0.91
1  C=C(C)[C@@H]1CC=C(C(O)C2C=CC3C(=O)NC(=O)C3N2Nc2ccc(Cl)cc2Cl)CC1 (stereo partly drawn)            1.3
2  [N-]=[N+]=Nc1ccccc1[C@H]1OC(c2ccc(OCCCO)cc2)=N[C@@]1(CCS(=O)(=O)c1ccccc1)C(=O)NCc1ccccc1          0.988
3  COc1ccc(NC(=O)O[C@H]2[C@H](OC(=O)c3cc4ccccc4[nH]3)[C@@H](OC(=O)c3cc4ccccc4[nH]3)[C@@H](OC)O[C@@H]2CO)cc1          0.358
4  CC(C)=CCCC(C)=CC(O)C1C=CC2C(=O)N(c3ccccc3)C(=O)C2N1Nc1ccc(C(C)C)cc1 (stereo not drawn)          0.816
5  COc1ccc(C(=O)Nc2cccc(CN3C(=O)[C@]4(O[C@H](CCn5cc(CCO)nn5)[C@@H]([Si](C)(C)c5ccc(OC)cc5)[C@@H]4C)c4ccccc43)c2)cc1          0.127
6  C=C(CCCC)C(=O)CC[C@H](OC(=O)c1cccnc1)c1ccc(OCCO)cc1           0.27
7  CCCCN1CC=CC23O[C@@H]4C=CCCOC(=O)C4[C@H]2C(=O)N(CCCCCO)[C@@H]3C1=O (stereo partly drawn)          0.413

* * *

assay: probe aDKK1 binding to arrayed compounds – biochemical, biotinylated probe, 635/667 nm fluorescence, primary screen (AID 1099); details: small-molecule microarray, higher = more signal;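 further: score merges 667nm spot fluorescence with signal to noise across triplicate slides; reference of the scale not given here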

COMPOUND	composite z-score
C=C(CCCC)/C(=C/C[C@H](OC(C)=O)c1ccccc1OCCO)c1cnc2ccccc2c1	-0.278
COc1ccc([Si](C)(C)[C@@H]2[C@@H](CC(=O)N3CCC[C@H]3CO)O[C@]3(C(=O)N(Cc4cccc(I)c4)c4ccccc43)[C@H]2C)cc1	0.0446
O=C1C2C=CC(C(O)COCc3ccccc3)N(Nc3ccc([N+](=O)[O-])cc3)C2C(=O)N1c1ccccc1 (centres undefined)	0.735
COC(=O)[C@@]1(Cc2ccc(F)cc2)[C@H]2c3cc(C(=O)N(C)C)n(Cc4cc(C)n(C)n4)c3C[C@H]2CN1C(=O)c1ccccc1	1.2
O=C1O[C@H](c2ccccc2)[C@H](c2ccccc2)N2[C@H]1[C@@H](C(=O)N1CCN(c3ncccn3)CC1)[C@]1(C(=O)Nc3ccc(C#CC4=CCCCC4)cc31)[C@H]2c1ccccc1OCCO	-0.14
CN1C(=O)C2C=CC(C(O)C=Cc3ccc([N+](=O)[O-])cc3)N(Nc3ccccc3)C2C1=O (centres undefined)	0.0403
COC(=O)c1c2oc(c1C(=O)OC)C(=O)N[C@@H](C(C)C)Cn1cc(nn1)C1(CCCCC1)NC(=O)N[C@H](CO)CC2	-0.324
COc1cc2c(cc1OC)CN(C(=O)[C@H]1[C@@H]3C(=O)O[C@@H](c4ccccc4)[C@@H](c4ccccc4)N3[C@@H](c3ccccc3OCCO)[C@]13C(=O)Nc1ccc(C#CCCO)cc13)CC2	-0.112
CCCC1(C(=O)OC)C=C2C(=C(c3ccccc3)C(=O)C2C)CN1 (centres undefined)	0.717
CO[C@H]1O[C@H](CO)[C@@H](OC(=O)Nc2ccccc2)[C@@H]2OC(=O)[C@@H](Cc3ccc4ccccc4c3)C/C=C/C[C@H](Cc3ccc4ccccc4c3)C(=O)O[C@@H]12	0.134
CC[C@@H]1C=C(C(=O)O)[C@H](c2cccc3ccccc23)N1S(=O)(=O)c1ccc(C)cc1	0.0149
C=C(CCCC)/C(=C/C[C@H](OC(C)=O)c1ccc(OCCO)cc1)c1cnc2ccccc2c1	-0.182
C=CCN1Cc2ccccc2[C@@H]2OC(c3ccc(OCCCO)cc3)=N[C@]2(CCS(=O)(=O)c2ccccc2)C1=O	0.205
COCCOC(=O)N1C(=O)[C@@]2(c3cc(C#CC4(O)CCCCCC4)ccc31)[C@H](C(=O)Nc1nc3ccccc3s1)[C@H]1C(=O)O[C@H](c3ccccc3)[C@H](c3ccccc3)N1[C@@H]2c1ccc(OCCO)cc1	0.0895
